experiment_description: probe aShh binding to arrayed compounds – biochemical, biotinylated probe, 635/667 nm fluorescence, primary screen (AID 1114);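 further: probe is biotin-labelled aShh protein from a stem cell growth factor screen; measures binding of labelled protein to compounds printed on the slide; score merges feature fluorescence at 667 nm with signal-to-noise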
test_context: small-molecule microarray, higher = more signal
endpoint: composite z-score
Give the figure by itself; no unit, no explanation.

Item under review: `C=CC[C@@H](OC(=O)Nc1ccc(OC)cc1)c1ccc(O)c(F)c1` . Reported composite z-score?
0.0141

Then this compound: C=CCC(OC(C)=O)[C@@H]1[C@@H](N(Cc2cccc3ccccc23)C(=O)Cc2ccc(OC)cc2)c2cc(OCCCO)ccc2N1C(=O)c1ccc(-c2ccccc2)cc1 (stereo partly specified)
-0.156

Then this compound: CCOc1cc(C(O)C2C=CC3C(=O)NC(=O)C3N2Nc2ccc(Cl)cc2Cl)ccc1O (stereo unspecified)
0.0062

Then this compound: CCCCCN1CC=CC23O[C@@H]4/C=C\CCCOC(=O)C4[C@H]2C(=O)N(C(C)CO)[C@@H]3C1=O (stereo partly specified)
-0.181

Then this compound: Cc1ccc(C(C)CC(O)C2C=CC3C(=O)N(c4ccccc4)C(=O)C3N2Nc2ccccc2)o1 (stereo unspecified)
0.308

Then this compound: `C=C(COC)C(=O)CC[C@@H](OC(C)=O)c1cccc(OCCO)c1`
-0.214

Then this compound: `CC(C)NC(=O)[C@@]1(C)c2ccccc2C(=O)N(Cc2ccc(OC(F)(F)F)cc2)[C@H]1c1ccc(CO)cc1`
-0.0833

Then this compound: `O=c1cccc(-c2ccc([N+](=O)[O-])cc2)o1`
0.199

Then this compound: `C=CCNC(=O)[C@@H]1[C@H]2C(=O)O[C@H](c3ccccc3)[C@H](c3ccccc3)N2[C@H](c2ccccc2OCCO)[C@@]12C(=O)Nc1ccc(C#CCC(C(=O)OC)C(=O)OC)cc12`
-0.147

Then this compound: C=CCC(OC(C)=O)[C@@H]1[C@@H](N(Cc2ccc(-c3cccc(C(F)(F)F)c3)o2)C(=O)Cc2ccc(OC)cc2)c2cc(OCCCO)ccc2N1C(=O)c1ccc(-c2ccccc2)cc1 (stereo partly specified)
-0.0793

Then this compound: `C=C(COC)/C(=C/C[C@H](OC(=O)c1ccncc1)c1ccc(CO)o1)c1cnc2ccccc2c1`
0.337

Then this compound: CC(C)c1ccc(NN2C(C(O)c3ccc(F)cc3)C=CC3C(=O)N(c4ccccc4)C(=O)C32)cc1 (stereo unspecified)
0.246

Then this compound: COC(=O)C1=CC(CCCO)=CC(c2ccc(CN3CCCC3)cc2)N(Cc2cccc(OC(F)(F)F)c2)C=C1C(=O)OC (stereo unspecified)
-0.0953

Then this compound: COC(=O)C1(CC(C)C)C=C2C(=C(c3ccccc3)C(=O)C2C)CN1 (stereo unspecified)
0.538

Then this compound: `Cc1ccc(S[C@]2(C(=O)NCC(F)(F)F)CC(=O)N(Cc3cc(C(F)(F)F)cc(C(F)(F)F)c3)[C@@H]2c2ccc(CO)cc2)cc1`
-0.356

Then this compound: CN1C2C=C(CCCO)C(C3C(=O)N(C(N)=O)C(=O)C32)C1C1CC1 (stereo unspecified)
0.0062

----------
Assignment: determine reported composite z-score for the given compounds.
target: Neurogenic locus notch homolog protein 3 (Homo sapiens) (UniProt Q9UM47)
Sequence (Q9UM47 whole entry, looked up): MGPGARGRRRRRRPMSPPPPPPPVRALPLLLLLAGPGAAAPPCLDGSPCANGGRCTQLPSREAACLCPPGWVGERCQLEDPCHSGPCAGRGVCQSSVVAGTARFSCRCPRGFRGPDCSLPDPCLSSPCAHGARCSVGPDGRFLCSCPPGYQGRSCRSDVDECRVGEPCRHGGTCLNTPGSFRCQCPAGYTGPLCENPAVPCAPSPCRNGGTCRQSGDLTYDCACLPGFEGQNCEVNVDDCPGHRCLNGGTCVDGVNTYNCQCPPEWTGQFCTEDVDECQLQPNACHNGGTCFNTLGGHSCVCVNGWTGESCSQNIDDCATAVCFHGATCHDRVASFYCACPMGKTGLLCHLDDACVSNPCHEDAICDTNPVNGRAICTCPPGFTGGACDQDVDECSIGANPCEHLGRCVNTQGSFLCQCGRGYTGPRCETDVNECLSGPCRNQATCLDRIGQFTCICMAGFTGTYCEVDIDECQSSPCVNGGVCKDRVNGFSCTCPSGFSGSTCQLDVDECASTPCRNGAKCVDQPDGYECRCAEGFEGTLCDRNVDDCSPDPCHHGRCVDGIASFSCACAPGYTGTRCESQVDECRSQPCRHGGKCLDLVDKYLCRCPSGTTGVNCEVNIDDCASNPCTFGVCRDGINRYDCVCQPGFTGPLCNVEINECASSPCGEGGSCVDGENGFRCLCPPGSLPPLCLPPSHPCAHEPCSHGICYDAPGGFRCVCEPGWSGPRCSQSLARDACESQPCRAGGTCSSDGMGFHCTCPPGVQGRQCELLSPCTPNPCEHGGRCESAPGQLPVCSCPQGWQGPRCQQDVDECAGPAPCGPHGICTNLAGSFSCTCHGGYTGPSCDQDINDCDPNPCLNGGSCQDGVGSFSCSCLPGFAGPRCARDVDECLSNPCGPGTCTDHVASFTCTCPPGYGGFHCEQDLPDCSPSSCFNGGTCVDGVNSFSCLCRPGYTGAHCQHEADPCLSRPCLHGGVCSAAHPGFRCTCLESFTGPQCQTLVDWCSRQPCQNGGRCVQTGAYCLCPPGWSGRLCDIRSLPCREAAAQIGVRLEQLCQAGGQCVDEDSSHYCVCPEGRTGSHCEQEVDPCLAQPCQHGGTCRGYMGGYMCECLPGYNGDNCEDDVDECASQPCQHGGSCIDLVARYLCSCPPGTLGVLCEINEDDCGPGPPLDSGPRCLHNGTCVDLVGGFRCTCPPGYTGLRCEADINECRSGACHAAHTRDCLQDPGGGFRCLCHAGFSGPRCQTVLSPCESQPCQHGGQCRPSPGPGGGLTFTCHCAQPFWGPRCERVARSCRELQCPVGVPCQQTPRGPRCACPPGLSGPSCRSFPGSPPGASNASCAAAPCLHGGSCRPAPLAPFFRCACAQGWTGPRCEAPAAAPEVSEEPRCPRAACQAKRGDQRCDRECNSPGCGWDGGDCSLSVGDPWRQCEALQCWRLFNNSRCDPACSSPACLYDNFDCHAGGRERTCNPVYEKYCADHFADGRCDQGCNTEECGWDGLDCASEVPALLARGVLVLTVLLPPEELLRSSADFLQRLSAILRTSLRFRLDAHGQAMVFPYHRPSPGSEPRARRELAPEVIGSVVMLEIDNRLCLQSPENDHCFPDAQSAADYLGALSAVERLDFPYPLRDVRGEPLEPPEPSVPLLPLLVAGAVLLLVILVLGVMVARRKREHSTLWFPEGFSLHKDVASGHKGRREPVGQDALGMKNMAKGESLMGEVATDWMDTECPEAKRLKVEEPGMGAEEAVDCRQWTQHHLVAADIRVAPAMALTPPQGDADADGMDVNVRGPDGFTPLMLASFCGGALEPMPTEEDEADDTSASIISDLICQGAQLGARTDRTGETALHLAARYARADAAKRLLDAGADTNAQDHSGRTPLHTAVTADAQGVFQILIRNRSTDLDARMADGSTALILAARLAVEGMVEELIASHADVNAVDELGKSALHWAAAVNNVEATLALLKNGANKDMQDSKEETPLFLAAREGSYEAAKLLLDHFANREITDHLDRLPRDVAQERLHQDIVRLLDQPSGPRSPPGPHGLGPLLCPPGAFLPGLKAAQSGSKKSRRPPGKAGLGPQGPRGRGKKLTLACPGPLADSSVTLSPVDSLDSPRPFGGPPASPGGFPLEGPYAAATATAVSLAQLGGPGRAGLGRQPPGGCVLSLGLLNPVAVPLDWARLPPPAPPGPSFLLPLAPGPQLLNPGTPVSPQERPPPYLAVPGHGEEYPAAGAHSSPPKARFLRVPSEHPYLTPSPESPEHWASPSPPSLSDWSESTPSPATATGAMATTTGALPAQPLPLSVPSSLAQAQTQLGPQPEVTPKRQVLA
experiment_description: small molecules binding NOTCH3 protein – biochemical, 635/667 nm fluorescence, primary screen (AID 1096)
test_context: small-molecule microarray, 635 nm fluorescence, higher = more signal
Give the figure by itself; no unit, no explanation.

Item under review: O=C1C2C=CC(C(O)c3ccco3)N(Nc3ccccc3F)C2C(=O)N1c1ccccc1 (centres undefined) . Reported composite z-score?
0.569

Then this compound: `CC(=O)NCCCC[C@@H]1NC(=O)[C@@H]2C[C@H](C(=O)NCCCCCN)[C@H](c3ccc(O)cc3)N2C1=O`
1.14

Then this compound: `COc1ccc([Si](C)(C)[C@@H]2[C@@H](CCO)O[C@]3(C(=O)N(Cc4ccccc4)c4ccc(N5C(=O)c6cccc7cccc5c67)cc43)[C@H]2C)cc1`
-0.0162

Then this compound: `COc1ccc(C(=O)Nc2ccc(CN3C(=O)[C@]4(O[C@H](CC(=O)N5Cc6ccccc6C[C@H]5CO)[C@@H]([Si](C)(C)c5ccc(OC)cc5)[C@@H]4C)c4ccccc43)cc2)cc1`
1.13
